The reported numbers originate from patent US20240166609A1.

Parameter: IC50. Scope: all listed entries.
Target: E. coli LpxC (Escherichia coli, UniProt P0A725)
Sequence (P0A725 whole entry): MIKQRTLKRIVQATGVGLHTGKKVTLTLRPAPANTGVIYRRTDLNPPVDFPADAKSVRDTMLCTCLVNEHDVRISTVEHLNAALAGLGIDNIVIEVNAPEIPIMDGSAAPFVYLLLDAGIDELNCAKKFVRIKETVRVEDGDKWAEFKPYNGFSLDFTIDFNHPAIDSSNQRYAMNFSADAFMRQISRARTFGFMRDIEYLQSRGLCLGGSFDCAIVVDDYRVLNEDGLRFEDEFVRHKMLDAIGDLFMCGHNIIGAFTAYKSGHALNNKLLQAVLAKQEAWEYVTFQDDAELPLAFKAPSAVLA

molecule | IC50
C[C@H](O)c1nccn1[C@@H](C#Cc1ccc(-c2ccc(O[C@H]3COC[C@@H]3O)cc2)cc1)CN (relative stereo) | 1.9 nM

// IC50 value for C[C@H](O)c1nccn1[C@@H](C#Cc1ccc(-c2ccc(OCC(O)CCCO)cc2)cc1)CO (stereo partly shown) : 0.5 nM

// IC50 value for C[C@H](O)c1nccn1CC#Cc1ccc(-c2ccc(OCC(N)CO)cc2)cc1 (mixture of isomers) : 13.6 nM

// IC50 value for C[C@H](O)c1nccn1CC#Cc1ccc(-c2ccc(C3CC(NCCC#N)C3)cc2)cc1 (stereo partly shown) : < 0.5 nM

// IC50 value for C[C@H](O)c1nccn1CC#Cc1ccc(-c2ccc(C3CC(NCCO)C3)cc2)cc1 (stereo partly shown) : < 0.5 nM

// IC50 value for COC[C@@H](O)COc1ccc(-c2ccc(C#C[C@@H](CO)n3ccnc3[C@H](C)O)cc2)cc1 : < 0.5 nM

// IC50 value for C[C@H](O)c1nccn1[C@@H](C#Cc1ccc(-c2ccc(OCC3COCCO3)cc2)cc1)CO (mixture of isomers) : < 0.5 nM

----------
Notes on MIC obtained with K. pneumoniae ATCC13883.
The reply should be a number in µg/mL, with the unit left off.

compound | system.name | measure.unit | reading
C[C@H](O)c1nccn1[C@@H](C#Cc1ccc(-c2ccc(C3CC(NCC#N)C3)cc2)cc1)CO (stereo partly shown) [Compound 28] | K. pneumoniae ATCC13883 | µg/mL | 0.5

// compound C[C@H](O)c1nccn1[C@@H](C#Cc1ccc(-c2ccc(O[C@@H]3C[C@H]3NCCF)cc2)cc1)CO (racemic) [Compound 12] , assay K. pneumoniae ATCC13883, MIC value: 2

// compound C[C@H](O)c1nccn1[C@@H](C#Cc1ccc(-c2ccc(C3CC(NCC(F)(F)CO)C3)cc2)cc1)CO (stereo partly shown) [Compound 34] , assay K. pneumoniae ATCC13883, MIC value: 2

// compound C[C@H](O)c1nccn1[C@@H](C#Cc1ccc(-c2ccc(C3CC(NC(=O)CC#N)C3)cc2)cc1)CO (stereo partly shown) [Compound 40] , assay K. pneumoniae ATCC13883, MIC value: 2

// compound COC[C@@H](O)COc1ccc(-c2ccc(C#C[C@@H](CO)n3ccnc3[C@H](C)O)cc2)cc1 [Compound 14] , assay K. pneumoniae ATCC13883, MIC value: 2

// compound C[C@@H](O)c1nccn1[C@H](C#Cc1ccc(-c2ccc(OCC(N)CO)cc2)cc1)CO (mixture of isomers) [Compound 1] , assay K. pneumoniae ATCC13883, MIC value: 32

// compound C[C@H](O)c1nccn1[C@@H](C#Cc1ccc(-c2ccc(COCC(N)CO)cc2)cc1)CO (mixture of isomers) [Compound 6] , assay K. pneumoniae ATCC13883, MIC value: 32

----------
System: P. aeruginosa 209 PAO1
Assay: Bacterial susceptibility testing, MIC by broth microdilution (CLSI)
Type: cell-based
Conditions: Pseudomonas aeruginosa, 35° C., 18-24 h, read-out: MIC (μg/mL) P. aeruginosa 209 PAO1
Parameter: MIC. Scope: all listed entries.
Kindly format the answer as number then unit.

// worked examples, MIC included
molecule | system.name | quantity.measured | reading
C[C@H](O)c1nccn1CC#Cc1ccc(-c2ccc(C3CC(NCCC#N)C3)cc2)cc1 (stereo partly drawn) | P. aeruginosa 209 PAO1 | MIC | 2 µg/mL
C[C@H](O)c1nccn1[C@@H](C#Cc1ccc(-c2ccc(O[C@@H]3C[C@H]3NCCF)cc2)cc1)CO (racemic) | P. aeruginosa 209 PAO1 | MIC | 2 µg/mL
C[C@H](O)c1nccn1[C@@H](C#Cc1ccc(-c2ccc(OCC(O)CCCO)cc2)cc1)CO (stereo partly drawn) | P. aeruginosa 209 PAO1 | MIC | 2 µg/mL

// MIC value for C[C@H](O)c1nccn1[C@@H](C#Cc1ccc(-c2ccc(C(O)CO)cc2)cc1)CO (mixture of isomers) : 4 µg/mL

// MIC value for COCC(N)COc1ccc(-c2ccc(C#C[C@@H](CO)n3ccnc3[C@H](C)O)cc2)cc1 (mixture of isomers) : 1 µg/mL

// MIC value for C[C@H](O)c1nccn1CC#Cc1ccc(-c2ccc(C3CC(NCC(=O)O)C3)cc2)cc1 (stereo partly drawn) : 4 µg/mL

// MIC value for C[C@H](O)c1nccn1[C@@H](C#Cc1ccc(-c2ccc(OCC(C)(O)CO)cc2)cc1)CO (mixture of isomers) : 2 µg/mL

// MIC value for C[C@H](O)c1nccn1[C@@H](C#Cc1ccc(-c2ccc([C@H]3C[C@H](NS(C)(=O)=O)C3)cc2)cc1)CO : 1 µg/mL

// MIC value for C[C@H](O)c1nccn1[C@@H](C#Cc1ccc(-c2ccc(OC(CO)CCO)cc2)cc1)CO (mixture of isomers) : 1 µg/mL

// MIC value for C[C@H](O)c1nccn1[C@@H](C#Cc1ccc(-c2ccc(O[C@H]3COC[C@@H]3O)cc2)cc1)CO (racemic) [Compound 46] : 1 µg/mL

// MIC value for C[C@H](O)c1nccn1[C@@H](C#Cc1ccc(-c2ccc(OCC(CO)CO)cc2)cc1)CO : 2 µg/mL

// MIC value for C[C@H](O)c1nccn1[C@@H](C#Cc1ccc(-c2ccc(C3CC(O)C3)cc2)cc1)CO (stereo partly drawn) : 0.5 µg/mL

// MIC value for C[C@H](O)c1nccn1[C@H](C#Cc1ccc(-c2ccc(OC[C@@H](N)CO)cc2)cc1)CO : 2 µg/mL

// MIC value for C[C@H](O)c1nccn1[C@@H](C#Cc1ccc(-c2ccc(OCCC(O)CO)cc2)cc1)CO (mixture of isomers) : 1 µg/mL

// MIC value for C[C@H](O)c1nccn1CC#Cc1ccc(-c2ccc(C3CC(NCc4cocn4)C3)cc2)cc1 (stereo partly drawn) : 2 µg/mL
